- ASSAY_TARGET: Cytochrome P450 2C19 (Homo sapiens) (UniProt P33261)
- Sequence (P33261 whole entry, looked up): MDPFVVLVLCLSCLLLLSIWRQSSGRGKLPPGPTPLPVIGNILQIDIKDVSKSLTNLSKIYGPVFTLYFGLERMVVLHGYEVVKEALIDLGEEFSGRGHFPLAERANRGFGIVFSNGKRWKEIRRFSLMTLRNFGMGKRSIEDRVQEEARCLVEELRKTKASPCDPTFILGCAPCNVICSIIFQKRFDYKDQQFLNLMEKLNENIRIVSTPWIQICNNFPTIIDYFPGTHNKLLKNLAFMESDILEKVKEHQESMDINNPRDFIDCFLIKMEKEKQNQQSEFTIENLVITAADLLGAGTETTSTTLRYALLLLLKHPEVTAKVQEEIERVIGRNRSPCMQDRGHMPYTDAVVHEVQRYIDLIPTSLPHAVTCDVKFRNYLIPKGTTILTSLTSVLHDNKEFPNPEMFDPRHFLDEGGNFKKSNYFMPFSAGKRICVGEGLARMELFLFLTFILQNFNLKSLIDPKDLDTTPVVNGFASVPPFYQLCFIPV
- ASSAY_TEXT: Cytochrome panel assay with activity outcomes
- CONDITION_SET: recombinant CYP, pro-luciferin dealkylation, luminescence, p450-cyp2c19; series mostly up to 57.1 µM
Hit rate of the full screen: of about 16,000 compounds, about 5,800 (36%) were called active. Roughly 23% stayed inconclusive and do not appear here. Calls follow the shape of the dose curve; as a rule, active = well fitted curve in the direction sought with a large enough effect; inconclusive = small, poorly fitted or top-dose-only effect, or effect the other way; inactive = no such curve, though single readings can be large or run the other way. The list shows a part of the results.
Pick from yes (1) = active, no (0) = inactive when you respond.

Reference set (4 entries):
INSERT INTO measurements (molecule, group) VALUES
  ('COC(=O)Cn1cnc(=O)c(C#N)c1/C=C/N(C)C', 'no (0)'),
  ('Cc1ccccc1-c1cc(Nc2ccccc2)ncn1', 'yes (1)'),
  ('Cc1cccc(-n2nc([N+](=O)[O-])c(=NCc3cccnc3)n2O)c1', 'yes (1)'),
  ('CC(=O)NCCNc1cc(-c2ccccc2C)ncn1', 'no (0)');

-- ask Hey, what did the test say about `Cc1c(C2CCN(CCc3ccccc3)CC2)noc1-c1ccc(Cl)cc1` ?
-- reply no (0)

-- ask Dear colleague, could you share the recorded outcome for `Cc1nn(C)c(C(=O)NNC(=S)Nc2ccc(Cl)cc2)c1[N+](=O)[O-]` when you have a moment?
-- reply no (0)

-- ask Name the outcome recorded for `CCn1c(SCC(=O)NC2CCCCC2)nnc1-c1cc2cccc(OC)c2o1` in the assay.
-- reply yes (1)

-- ask # fetch the recorded call for `CCC[C@H]1C(=O)N2C(N(C)C)=Nc3ccc(C)cc3N2C1=O` here
-- reply no (0)

-- ask What classification did `O=C(/C=C/c1cccc(Cl)c1)Nc1ccncc1` end up with in this test?
-- reply yes (1)

-- ask Give the logged outcome of this assay for the following molecule: `O=c1c2ccccc2nnn1CSc1nnnn1-c1ccccc1`
-- reply yes (1)

-- ask Fill in: this test's call for Fc1ccc(-c2csc(N3CCC(c4ccccc4)C3)n2)cc1 (stereo not given) is ___
-- reply yes (1)

-- ask Hey, what did the test say about `O=c1c2ccccc2nnn1CSc1ccc2c(c1)OCCO2` ?
-- reply yes (1)

-- ask Please let me know the test result on file for `C=CCNc1oc(/C=C/c2ccccc2)nc1C#N` .
-- reply yes (1)

-- ask State the result this test recorded for `COc1ccc(C(=O)N2CCC3(CCN(Cc4cc(C(F)(F)F)cc(C(F)(F)F)c4)CC3)CC2)cc1` .
-- reply no (0)

-- ask Which result was noted for this molecule in the test: Clc1ccc(-c2csc(N3CCC(c4ccccc4)C3)n2)cc1 (stereo not given)
-- reply yes (1)

* * *

- ASSAY_TARGET: Cytochrome P450 2C19 (Homo sapiens) (UniProt P33261)
- ASSAY_TEXT: Cytochrome panel assay with activity outcomes; as to activity, negative = inhibition: % is scaled to controls: 0 for no effect and ±100 for the full control effect
- CONDITION_SET: recombinant CYP, pro-luciferin dealkylation, luminescence, p450-cyp2c19; series mostly up to 57.1 µM
Out of some 16,000 compounds screened, about 5,800 (36%) were called active. Not shown: some 23% with an inconclusive outcome. This is one part of the list.
Measured activity, negative = inhibition of individual entries

INSERT INTO assay_data (compound, value_observed) VALUES
  ('NS(=O)(=O)c1ccc(N=Nc2nc3[nH]c(=O)[nH]c(=O)c3[nH]2)cc1', '-0.933% [at 11.4 µM] (inactive)');

# value of activity, negative = inhibition, Cytochrome P450 2C19 (Homo sapiens) (UniProt P33261), item `C#CCCCO/N=C1/C[C@@H](O)[C@@H](O)[C@@H]2[C@@H]3C(=O)N(C4CCCCC4)C(=O)[C@H]3CC[C@@H]12` = -32.2% [at 11.4 µM] (inactive)

* * *

- ASSAY_TARGET: Cytochrome P450 2C19 (Homo sapiens)
- ASSAY_TEXT: Cytochrome panel assay with activity outcomes
- CONDITION_SET: recombinant CYP, pro-luciferin dealkylation, luminescence, p450-cyp2c19; series mostly up to 57.1 µM
The whole screen tested about 16,000 compounds, of which about 5,800 (36%) were called active. Not shown: some 23% with an inconclusive outcome. The list shows a part of the results.
PROPERTY_LABEL: AC50

Answered cases to consult:
INSERT INTO results (molecule, value_observed) VALUES
  ('N#Cc1cccc(NC(=O)N2CCCC3(CCN(C(=O)c4cnccn4)CC3)C2)c1', 'inactive'),
  ('Fc1ccc(Nc2ncncc2-c2ccccc2C(F)(F)F)cc1', '7.94 µM (active)'),
  ('Cc1ccc(NC(=O)NCCCc2ccccc2)cc1', '2.51 µM (active)'),
  ('O=C(O)CCCCCNC(=O)c1ccccc1Br', 'inactive'),
  ('CCn1c2ccc(Cl)cc2c2nc3ccccc3nc21', '14.1 µM (active)'),
  ('CC(=O)OCC(=O)[C@@]1(O)CC[C@@H]2[C@H]3CCC4=CC(=O)C=C[C@]4(C)[C@]3(F)[C@@H](O)C[C@@]21C', 'inactive');

// AC50 lookup, molecule = `CCN(CC)CCOc1ccc(/C(=C(\Cl)c2ccccc2)c2ccccc2)cc1` , result: inactive

So for CCc1ccccc1NC(=O)C(C)n1nc([N+](=O)[O-])c(Br)c1C (stereo unspecified) , the logged AC50 turned out to be 2.51 µM (active)

# AC50 (molecule: `COCCNC(=O)c1onc(CSc2ccc(Cl)cc2)c1C(=O)O` ) is 3.55 µM (active)

So, `O=C(/C=C/c1ccco1)NC(=S)Nc1ccc(N2CCOCC2)c(Cl)c1` ? Its AC50 was 11.2 µM (active)

Lab note: `COc1cc(Cn2cnnn2)ccc1O` gave AC50 of inactive

Short answer for `Cc1cc2c(cc1S(N)(=O)=O)S(=O)(=O)CCC2` : AC50 was inactive

Consider `OCCN=c1cc(-c2ccccc2)oc2ccc(Cl)cc12` . Its measured AC50 is 1.58 µM (active)

* * *

- ASSAY_TARGET: Cytochrome P450 2C19 (Homo sapiens) (UniProt P33261)
- ASSAY_TEXT: Cytochrome panel assay with activity outcomes
- CONDITION_SET: recombinant CYP, pro-luciferin dealkylation, luminescence, p450-cyp2c19; series mostly up to 57.1 µM
Out of some 16,000 compounds screened, about 5,800 (36%) were called active. Not shown: some 23% with an inconclusive outcome. Calls follow the shape of the dose curve; as a rule, active = well fitted curve in the direction sought with a large enough effect; inconclusive = small, poorly fitted or top-dose-only effect, or effect the other way; inactive = no such curve, though single readings can be large or run the other way. Some of the results follow.
API: response.call in yes (1) for active, no (0) for inactive

INSERT INTO measurements (molecule, assay_target, group) VALUES
  ('O=S(=O)(O)c1cc(O)c2c(N=Cc3ccccc3O)cc(S(=O)(=O)O)cc2c1', 'Cytochrome P450 2C19 (Homo sapiens) (UniProt P33261)', 'yes (1)'),
  ('CC(C)c1cc(C(F)(F)F)nc(NNc2nc(C(C)C)cc(C(F)(F)F)n2)n1', 'Cytochrome P450 2C19 (Homo sapiens) (UniProt P33261)', 'yes (1)'),
  ('O=c1n(CCCN2CCN(c3cccc(Cl)c3)CC2)nc2ccccn12', 'Cytochrome P450 2C19 (Homo sapiens) (UniProt P33261)', 'no (0)'),
  ('COc1ccc(CNc2ncncc2-c2ccccc2C(F)(F)F)c(OC)c1', 'Cytochrome P450 2C19 (Homo sapiens) (UniProt P33261)', 'yes (1)'),
  ('Cc1ccccc1-n1c(=O)cc(N2CC(C)OC(C)C2)[nH]c1=O (stereo not drawn)', 'Cytochrome P450 2C19 (Homo sapiens) (UniProt P33261)', 'no (0)');

-- ask Check the results log: what was the call for `O=C(c1csnn1)N1CCC2(CCCN(c3ccc(-c4ccccc4)cc3)C2)CC1` ?
-- reply no (0)

-- ask How was CCOc1ccc(N2C(=O)C3C4C=CC(CC4)C3C2=O)c([N+](=O)[O-])c1 (stereo not drawn) classified in this test?
-- reply yes (1)

-- ask So what was the verdict on `O=C(c1ccccc1)c1ccc2n1CC[C@H]2C(=O)O` in this test?
-- reply no (0)

* * *

- ASSAY_TARGET: Cytochrome P450 2C19 (Homo sapiens)
- ASSAY_TEXT: Cytochrome panel assay with activity outcomes
- CONDITION_SET: recombinant CYP, pro-luciferin dealkylation, luminescence, p450-cyp2c19; series mostly up to 57.1 µM
Hit rate of the full screen: of about 16,000 compounds, about 5,800 (36%) were called active. Not shown: some 23% with an inconclusive outcome. The call rests on the fitted dose curve; in most records, active means well fitted curve in the direction sought with a large enough effect; inconclusive means small, poorly fitted or top-dose-only effect, or effect the other way; inactive means no such curve, though single readings can be large or run the other way. This is one part of the list.
Classes to choose from: active, inactive

Some solved entries appear below for comparison.
INSERT INTO measurements (compound, group) VALUES
  ('Cc1ccc(CSc2nnc(C(F)(F)F)n2Cc2ccc(F)cc2)cc1', 'active'),
  ('O=C(Cc1ccccc1)Nc1nc2ccc(Cl)cc2c2nc(-c3ccco3)nn12', 'active'),
  ('CN(C)/C(CN1CCN(C=O)CC1)=C1\N=C(c2ccccc2)OC1=O', 'inactive'),
  ('CCOc1cc2[nH]c(=O)n(CCC(=O)NCc3ccc(OC)cc3)c(=O)c2cc1OCC', 'inactive'),
  ('CC1(C)Cc2c(C#N)c(SCc3ccccc3)nc(N3CCOCC3)c2CO1', 'active'),
  ('COCCn1nc2cc(C(=O)NCC34CC5CC(CC(C5)C3)C4)ccc2c1OC', 'inactive');

Now examine the next entry.
-- ask Recorded test call requested for `CCOc1c2ccc(C(=O)NCc3ccco3)cc2nn1CC`
-- reply inactive

Just for reference, PubChem BioAssay AID1851 is where these values come from.
